test: RCMB18 cell growth, single agent and combined, cisplatin and BGB IC40 combos (AID 1671462); details: RCMB18 medulloblastoma cells, single agent, at 5 µM, stronger effect = higher value;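 also: cells exposed to compound for four days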
measure-name: inhibition (%)
Reply numerically in %, unit not repeated.

Illustrative cases are given below, each with its answer.
>  <compound>
COc1nc(N)nc2c1ncn2[C@@H]1O[C@H](CO)[C@@H](O)[C@H]1O

>  <result-unit>
%

>  <inhibition>
15.2

$$$$
>  <compound>
C[n+]1ccc(-c2c3nc(c(-c4cc[n+](C)cc4)c4ccc([nH]4)c(-c4cc[n+](C)cc4)c4nc(c(-c5cc[n+](C)cc5)c5ccc2[nH]5)C=C4)C=C3)cc1

>  <result-unit>
%

>  <inhibition>
-32.1

$$$$
>  <compound>
O=c1ccn(C2CC(O)C(CO)O2)c(=O)[nH]1 (centres undefined)

>  <result-unit>
%

>  <inhibition>
-204

$$$$
>  <compound>
NC(=O)c1cccc2[nH]c(-c3ccc(C4CCCN4)cc3F)nc12 (centres undefined)

>  <result-unit>
%

>  <inhibition>
39.2

$$$$
>  <compound>
NC(=S)NN=Cc1ncccc1N

>  <result-unit>
%

>  <inhibition>
-34.2

$$$$

query: Which inhibition is reported for this compound? `O=C(CCCCCCC(=O)NO)NO`
result: -14.5

query: Same thing, different compound: NC(=O)c1ncn(C2OC(CO)C(O)C2O)c1O (centres undefined)
result: -31.2

query: Same thing, different compound: C=C(C)C1CCC2(C(=O)O)CCC3(C)C(CCC4C5(C)CCC(O)C(C)(C)C5CCC43C)C12 (centres undefined)
result: 7.3

query: Same thing, different compound: CCC(Sc1nnc2c3ccccc3n(CC)c2n1)C(=O)Nc1ccccc1OC (centres undefined)
result: -2.94

query: Same thing, different compound: `CC(C)C(=O)SCCCCCCC(=O)Nc1nc(-c2ccccc2)cs1`
result: 36.3
